Tested system: hGLP-1R (Homo sapiens, UniProt P43220)
Sequence (P43220 24-463): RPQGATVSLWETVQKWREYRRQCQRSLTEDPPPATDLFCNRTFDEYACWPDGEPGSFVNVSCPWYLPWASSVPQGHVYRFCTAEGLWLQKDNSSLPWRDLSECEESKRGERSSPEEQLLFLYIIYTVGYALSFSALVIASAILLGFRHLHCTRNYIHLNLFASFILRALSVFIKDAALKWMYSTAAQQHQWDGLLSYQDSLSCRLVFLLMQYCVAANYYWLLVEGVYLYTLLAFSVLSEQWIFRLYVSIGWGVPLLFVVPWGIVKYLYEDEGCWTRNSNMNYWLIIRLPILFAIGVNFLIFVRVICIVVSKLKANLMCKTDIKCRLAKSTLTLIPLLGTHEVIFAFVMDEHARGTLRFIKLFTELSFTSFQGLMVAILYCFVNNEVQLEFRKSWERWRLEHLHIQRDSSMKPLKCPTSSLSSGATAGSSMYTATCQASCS
Measurement protocol: cell-based or functional assay
Field: log10 cAMP Rel EC50 (in the presence of 1% HSA). Provide a value for each of the binders that follow.
Hey, these are logged values: log10 of cAMP Rel EC50 (in the presence of 1% HSA), nM being the unit before logging.

YXQGTFTSDFSKXLDKKAQXAFIEYLLAGGPSSGAPPPSGE (synthetic construct; SITE 2: note = 2-Aminoisobutyric Acid; SITE 13: note = alpha-methyl-leucine; SITE 17: note = Lysine is chemically modified through conjugation of the epsilon-amino group of the Lysine side chain with (2-[2-(2-Amino-ethoxy)-ethoxy]-acetyl)-(gamma-Glu)-CO-(CH2) 18-CO2H; SITE 20: n) [Example 11] ... 2.53

Hi there! I need log10 cAMP Rel EC50 (in the presence of 1% HSA) for each item below, if you can.
1. YXQGTXTSDXXIXLDXKAQXEFIEXLIEGGPPSXXPPPEGE (Aib, αMeF(2F), 4Pal, αMeS, αMeL, Orn, Me4Pal, αMeY; lipidated Lys; amide; synthetic construct; SITE 2: note = 2-Aminoisobutyric Acid; SITE 6: note = alpha-methyl-2-fluoro-L-phenylalanine; SITE 10: note = 3-(4-Pyridyl)-L-alanine; SITE 11: note = alpha-methyl-L-serine; SITE 13: note = alpha-methyl-leucine; SITE 16: note = L-ornithine; SITE 17: note = Lysine is chemically mo) [Example 1194]
2. YXQGTXTSDXSIXLDKKAQXXFIEYLQEGGPSSGEPPPSGSEE (non-natural residues, lipidated Lys, C-terminal amide; synthetic construct; SITE 2: note = 2-Aminoisobutyric Acid; SITE 6: note = alpha-methyl-2-fluoro-L-phenylalanine; SITE 10: note = 3-(4-Pyridyl)-L-alanine; SITE 13: note = alpha-methyl-leucine; SITE 17: note = Lysine is chemically modified through conjugation of the epsilon-amino group of the Lysine) [Example 639]
3. YXQGTXTSDXXIXLDXKAQXEFIEXLIEGGPSSGEPPPSGGGE (non-natural residues; Lys acylated C18 diacid; C-terminal amide; synthetic construct; SITE 2: note = 2-Aminoisobutyric Acid; SITE 6: note = alpha-methyl-2-fluoro-L-phenylalanine; SITE 10: note = 3-(4-Pyridyl)-L-alanine; SITE 11: note = alpha-methyl-L-serine; SITE 13: note = alpha-methyl-leucine; SITE 16: note = L-ornithine; SITE 17: note = Lysine is chemically mo) [Example 1181]

Reply:
1: 1.76; 2: 1.45; 3: 1.68

I'm hoping you can list log10 cAMP Rel EC50 (in the presence of 1% HSA) for every binder here, please.
1. YXQGTFTSDFSKXLDKKAQXAFIEYLLEXGPSSGEPPPSEG (Aib, αMeL; acylated Lys; C-terminal amide; synthetic construct; SITE 2: note = 2-Aminoisobutyric Acid; SITE 13: note = alpha-methyl-leucine; SITE 17: note = Lysine is chemically modified through conjugation of the epsilon-amino group of the Lysine side chain with (2-[2-(2-Amino-ethoxy)-ethoxy]-acetyl)-(gamma-Glu)-CO-(CH2) 16-CO2H; SITE 20: n) [Example 46]
2. YXQGTXTSDXSIXLDKKAQXXFIEYLAEGGPSSGEPPPSGSEE (non-natural residues; lipidated Lys (γGlu)2-C18 diacid; C-term amide; synthetic construct; SITE 2: note = 2-Aminoisobutyric Acid; SITE 6: note = alpha-methyl-2-fluoro-L-phenylalanine; SITE 10: note = 3-(4-Pyridyl)-L-alanine; SITE 13: note = alpha-methyl-leucine; SITE 17: note = Lysine is chemically modified through conjugation of the epsilon-amino group of the Lysine) [Example 636]

Reply:
1. 2.78
2. 1.56
